All figures here come from paper PMC10780175.

Experiment: Pharmacokinetic study in rats after intraperitoneal injection (UHPLC-MS/MS)
Assay type: in vivo, Sprague Dawley rats
Settings: Sprague Dawley, rat, plasma, ip, single intraperitoneal injection 0.36 mg/kg, female, mean ± SD
assay.metric: half-life
Please answer using a numeric value trailed by its unit.

Input: Param item = COc1ccc(Oc2ccc(C(F)(F)F)cc2NC(=O)CC(CC(=O)O)c2ccccc2)cc1 (stereo not shown) ; retrieve measured half-life.
Output: 25.8 min

====

Assay: Pharmacokinetic study in rats after intraperitoneal injection (UHPLC-MS/MS)
Format: in vivo, Sprague Dawley rats
Settings: Sprague Dawley, rat, ip, intraperitoneal 0.36 mg/kg, plasma, non-compartmental WinNonlin 7.0, read-out: Cmax, observed
assay.metric: Cmax (ng/mL)
Numbers only, in ng/mL.

Input: Param item = COc1ccc(Oc2ccc(C(F)(F)F)cc2NC(=O)CC(CC(=O)O)c2ccccc2)cc1 (stereo not shown) ; retrieve measured Cmax.
Output: 257
